The reported numbers originate from PubChem BioAssay.

# PROTOCOL TEXT: inhibitors of TNFa-induced NFkB p65 translocation, primary screen, imaging, HUVEC, MLSMR starter and 10KST1 sets (AID 438);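 further: compound added about 3h40 before a 20 min TNFalpha stimulation; signal is the nuclear over cytoplasmic p65 intensity ratio per well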
# TEST CONTEXT: HUVEC TNFa-induced p65 nuclear translocation; at 2 µM, stronger effect = higher value, 0% TNFa-plus-vehicle, 100% no-TNFa wells
PROPERTY: inhibition (%)
Give the value, in units of %, as a plain number.

Ask | Requested field: inhibition. Item: COc1ccc(CC(=O)OCc2nnc(C3COc4ccccc4O3)o2)cc1OC (stereo not given)
Reply | -1.1

Ask | Try this compound too: `CCCCC(=O)Nc1nn(CCC)c2nc3ccccc3cc12`
Reply | 4.2

Ask | Try this compound too: `C=CCn1c(=O)/c(=C/c2ccc(O)cc2)s/c1=C(/C#N)c1nnc2n1CCCCC2`
Reply | -0.5

Ask | Try this compound too: `O=C(COn1nnc2ccc(C(F)(F)F)cc21)Nc1nnc(-c2ccccc2)o1`
Reply | -3.6

Ask | Try this compound too: `COC(=O)c1ccccc1S(=O)(=O)N(Cc1cc2cc3c(cc2[nH]c1=O)OCO3)C1CCCCC1`
Reply | -3.6

Ask | Try this compound too: `Cc1ccc(-c2ccc(/C=N/n3cnnc3)o2)cc1Cl`
Reply | -1.5

Ask | Try this compound too: `O=c1c2c(nc3nc(COc4ccccc4)[nH]n13)CCC2`
Reply | 5.6

Ask | Try this compound too: `Cc1ccc(C)c(C(=O)NC2CC(C)(C)NC(C)(C)C2)c1`
Reply | 0.8

Ask | Try this compound too: `CCn1c2ccccc2c2cc(NC(=O)Cc3ccc(S(=O)(=O)N4CCOCC4)s3)ccc21`
Reply | -0.2

Ask | Try this compound too: O=C(O)C1C2C=CC(O2)C1C(=O)NCc1ccc(Cl)cc1 (stereo not given)
Reply | -7.5

====

Assignment: determine reported inhibition of aggregation for the given compounds.
# PROTOCOL TEXT: reduction of polyQ htt aggregates in cells – imaging, exon1htt(103Q)mCFP cells, high-content imaging, primary screen (AID 483);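 further: compound exposure lasted 3 days before fixation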
# TEST CONTEXT: exon1htt(103Q)mCFP cell line, aggregate imaging, at 2 µM; stronger effect = higher value
Activity calls are given as the source filed them.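 The calls were made as follows: active = visual image review flags a hit and inhibition of aggregation exceeds 20%; inconclusive = visual hit but inhibition at or below 20%; inactive = no hit on visual image review.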

Ask | Requested field: inhibition of aggregation. Item: `CCCOc1ccc(-c2nnn(CC(=O)Nc3cccc(C(=O)OC)c3)n2)cc1`
Reply | -8.7% (inactive)

Ask | Try this compound too: `O=c1c2cn[nH]c2nc(SCc2ccc3c(c2)OCCO3)n1-c1ccccc1`
Reply | 4.8% (inactive)

Ask | Try this compound too: `Cc1noc(C)c1S(=O)(=O)Nc1c(C)n(C)n(-c2ccccc2)c1=O`
Reply | 33.5% (inactive)

Ask | Try this compound too: CCOc1cc(C2C(C#N)=C(N)OC(C)=C2C(C)=O)cc(Br)c1O (centres undefined)
Reply | -9.7% (inactive)

Ask | Try this compound too: `CSc1nnc2c3ccccc3n(Cc3ccccc3)c2n1`
Reply | 3.5% (inactive)

Ask | Try this compound too: `O=C(NCc1ccco1)c1noc2c1CCCCC2`
Reply | 1.9% (inactive)

Ask | Try this compound too: `CCOc1ccccc1Nc1ncnc2ccccc12`
Reply | 8% (inactive)

Ask | Try this compound too: CCNC(=O)CC1C(=O)N(c2ccc(F)cc2)C(=O)N1CCC(C)C (centres undefined)
Reply | 17.4% (inactive)

Ask | Try this compound too: `NC(=O)SCC(=O)Nc1cccc(Cl)c1`
Reply | -7.6% (inactive)

Ask | Try this compound too: `CCOC(=O)CSc1nc2cc(C(=O)NCc3ccco3)ccc2c(=O)n1-c1ccc(F)cc1`
Reply | -7.1% (inactive)

Ask | Try this compound too: `Cn1c(=O)c(C(=S)NC(=O)C2CC2)c(N)n(Cc2ccccc2)c1=O`
Reply | 14.6% (inactive)

Ask | Try this compound too: CCCc1n[nH]c2c1/C(=N/O)CC(c1ccccc1)C2 (centres undefined)
Reply | 3.1% (inactive)

Ask | Try this compound too: `CN(Cc1cccs1)c1ncnc2sccc12`
Reply | -28.3% (inactive)

Ask | Try this compound too: C=CCOc1ccc(/C(O)=C2\C(=O)C(=O)N(CCOC)C2c2cccnc2)cc1 (centres undefined)
Reply | 14.8% (inactive)

Ask | Try this compound too: `c1ccc2[nH]c(CSc3nnc(-c4ccncc4)o3)nc2c1`
Reply | 5.8% (inactive)

Ask | Try this compound too: `CC(C)CC(=O)CN1C(=O)C2(OCCO2)c2ccccc21`
Reply | 22.6% (inactive)

Ask | Try this compound too: `CN1CCCN(C(=O)c2cc(=O)[nH]c3ccccc23)c2nc3ccccc3nc21`
Reply | 5.4% (inactive)

Ask | Try this compound too: `CCn1cc(C(=O)O)c(=O)c2cnc(N3CCNCC3)nc21`
Reply | 1.6% (inactive)

Ask | Try this compound too: `Brc1ccc(C2=Nn3c(nnc3-c3ccncc3)SC2)cc1`
Reply | -12.9% (inactive)

Ask | Try this compound too: `CC(C)n1c(=NC(=O)c2ccco2)c(C#N)cc2c(=O)n3ccccc3cc21`
Reply | -20.7% (inactive)

Ask | Try this compound too: `O=C(CCN1CCOCC1)Nc1ccc2c(c1)CCC2`
Reply | 17.3% (inactive)

Ask | Try this compound too: `Cc1nc(-c2cnn(-c3ccccc3)c2)c2cc(C)oc2n1`
Reply | 10.4% (inactive)

Ask | Try this compound too: `O=C(O)CCN1C(=O)c2ccccc2C1=O`
Reply | -1.9% (inactive)

Ask | Try this compound too: `CCc1ccc2oc(-c3cc(N)ccc3Cl)nc2c1`
Reply | 3% (inactive)

====

# TARGET OR TEST SYSTEM: Muscarinic acetylcholine receptor M4 (Homo sapiens)
# PROTOCOL TEXT: M4-linked GIRK flux change, two-sided – cell-based, HEK293 M4/GIRK, thallium flux, BTC-AM, M4 allosteric agonist project, primary screen (AID 625);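 further: thallium influx through GIRK channels coupled to M4 in HEK293 cells with BTC-AM dye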
# TEST CONTEXT: at 10 µM, actives lie on both sides
Assignment: determine reported fluorescence slope for the given compounds.
The answer should be written as a number, with no unit following it.

Ask | Requested field: fluorescence slope. Item: `CCOC(=O)CSc1nc2ccccc2c(=O)n1CCN1CCOCC1`
Reply | 0.00551

Ask | Try this compound too: `COc1ccc(-c2cc(C(=O)NCCc3ccccc3)no2)cc1OC`
Reply | 0.00599

Ask | Try this compound too: `Cc1ccc(-n2nnnc2SCC(=O)N2CCc3ccccc3C2)cc1`
Reply | 0.00503

Ask | Try this compound too: O=c1c2c3nc4ccccc4nc3n(CC3CCCO3)c2ncn1CCc1ccccc1 (stereo unspecified)
Reply | 0.00514

Ask | Try this compound too: COc1ccc(OC)c(C2=NOC(C(=O)NCCN3CCOCC3)C2)c1 (stereo unspecified)
Reply | 0.00547

Ask | Try this compound too: `O=C(CCSc1ccccc1)N1CCN(C(=O)c2ccco2)CC1`
Reply | 0.0052

====

# PROTOCOL TEXT: endothelial E-selectin expression blockers – imaging, HUVEC, immunofluorescence, MLSMR starter and 10KST1 sets, primary screen (AID 487);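 further: 100% = median nuclei count of all wells on the same plate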
# TEST CONTEXT: HUVEC TNFalpha-induced E-selectin immunofluorescence imaging, at 2 µM; measured here: cell number, toxicity
PROPERTY: nuclei count (%)
Give the value, in units of %, as a plain number.

Ask | Requested field: nuclei count. Item: `O=P(O)(O)c1ccccc1OCCOCCOc1ccccc1P(=O)(O)O`
Reply | 86.4

Ask | Try this compound too: `CSc1nnc(-c2cnccn2)n1C`
Reply | 109

Ask | Try this compound too: `CCNC(=O)CC(=O)Nc1ccccc1C(=O)O`
Reply | 118

Ask | Try this compound too: CCCc1n[nH]c2c1/C(=N/O)CC(c1ccccc1)C2 (configuration not stated)
Reply | 110

Ask | Try this compound too: `O=C(C1CCN(S(=O)(=O)c2ccc(-n3cnnn3)cc2)CC1)N1CCN(c2ccccc2)CC1`
Reply | 120

Ask | Try this compound too: `O=C(CSc1nnc(-c2cccs2)o1)N1CCOCC1`
Reply | 118

Ask | Try this compound too: `CCOC(=O)CCCn1nc(C)n2c(cc3sccc32)c1=O`
Reply | 119

Ask | Try this compound too: `COc1ccc(N2CCN(c3oc(COc4ccccc4)nc3C#N)CC2)cc1`
Reply | 155

Ask | Try this compound too: `CC(C)c1ccc(-c2nc(N3CCCCC3)[nH]c(=O)c2C#N)cc1`
Reply | 107

Ask | Try this compound too: COc1ccc(C2C(=O)N(C3CCCCC3)CC(=O)N2Cc2ccco2)cc1 (configuration not stated)
Reply | 101

Ask | Try this compound too: `Cc1ccc(Cn2c(C)nc3c(c2=O)c2nc4ccccc4nc2n3Cc2ccco2)cc1`
Reply | 91.7

Ask | Try this compound too: `CN(C(=O)c1ccno1)c1nnc(-c2cnccn2)s1`
Reply | 107
